test system: Inhibin beta A chain (activin A); experiment: INHBA (activin A) binders on microarrays, primary screen, biochemical, small-molecule microarray, 635 nm fluorescence scan (AID 1107); settings: small-molecule microarray binding, higher = more signal;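 also: mouse activin A protein probed at 4.33 µg/mL on printed slides; score merges bound-protein fluorescence near 667 nm with spot signal-to-noise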
REPORTED PROPERTY: composite z-score

MOLECULE	composite z-score
CCN1C(=O)[C@H]2[C@H]3[C@H](O)[C@H](O)CC(=NO[C@@H]4O[C@H](CO)[C@@H](O)[C@H](O)[C@H]4O)[C@H]3CC[C@H]2C1=O	0.182
CC(CCC(=O)OC[C@H]1O[C@H](C#Cc2ccccc2)C=C[C@@H]1Oc1ccc(C)cc1)=NOC[C@@H](C)[C@H](OCc1ccccc1)C(C)C	0.211
CCc1cc2c(nc1CC)CCN(CCC(C)=NO[C@@H]1O[C@H](COC(C)=O)[C@@H](OC(C)=O)[C@H](OC(C)=O)[C@H]1OC(C)=O)C2	0.703
CC(CCC(=O)OC[C@H]1O[C@H](C#Cc2ccccc2)C=C[C@@H]1Oc1ccc(C)cc1)=NO[C@@H](C)c1cc(-c2c(C)cc(C)cc2C)no1	0.486
O=C1[C@H]2[C@H]3[C@H](O)[C@H](O)CC(=NOCc4ccccc4)[C@@H]3CC[C@H]2C(=O)N1c1cccc(Oc2ccccc2)c1	-0.202
COC(=O)[C@@H]1CC[C@H](C)[C@@H](c2ccc(C)cc2)N1C(=O)c1ccc(C=NOC[C@@H](O)[C@H]2O[C@@H]3OC(C)(C)O[C@@H]3[C@H]2O)cc1	0.101
CCOC(=O)[C@H](Cc1ccccc1)NC(=O)CCC1CC(OC(=O)NCc2ccc3c(c2)OCO3)CC2(CCCC(COC(=O)NCCc3ccc(Cl)cc3)O2)O1 (some centres undefined)	0.0209
C[C@@H]1C=CCC(=O)OC[C@H](C)C(=O)N[C@@H](Cc2ccccc2)C(=O)OC1	-0.289

State its composite z-score for this molecule: COc1ccc(COC(=O)NN=C2C[C@@H](O)[C@@H](O)[C@@H]3[C@@H]4C(=O)N(C(C)(C)C)C(=O)[C@@H]4CC[C@@H]23)cc1
-0.105

State its composite z-score for this molecule: O=C1C[C@@H](O)[C@@H](O)[C@@H]2[C@@H]3C(=O)N(c4ccc(F)cc4F)C(=O)[C@@H]3CC[C@H]12
0.148

State its composite z-score for this molecule: C[C@H]1CC[C@H]2C(=O)N[C@H](Cc3ccccc3)C(=O)N2[C@@H]1c1ccccc1
0.595

State its composite z-score for this molecule: CCOC(=O)[C@H](CC(C)C)NC(=O)CCC1CC(OC(=O)NCCc2ccc(F)cc2)CC2(CCCC(COC(=O)NCc3cccc4ccccc34)O2)O1 (some centres undefined)
-0.583

* * *

This listing pairs molecules with measured composite z-score.
target: Calmodulin-1 (Homo sapiens); experiment: calcium-bound CALM1 binders on microarrays, profiling panel, artefact control for SMM control-protein annotation, biochemical, small-molecule microarray, Cy5-labelled CALM1, plus calcium (AID 1112); conditions: Cy5-CALM1 binding fluorescence, higher = more signal;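 also: score merges spot fluorescence with signal to noise from triplicate slides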

MOLECULE	TARGET OF ASSAY	composite z-score
CO[C@H]1COC(=O)[C@H](C)COC(=O)[C@@H](OCc2ccccc2)C=C[C@@H]1C	Calmodulin-1 (Homo sapiens)	-0.726
CC(C)(C)N1C(=O)[C@H]2[C@H]3[C@H](O)[C@H](O)CC(=NOC[C@@H](O)COCc4ccco4)[C@H]3CC[C@H]2C1=O	Calmodulin-1 (Homo sapiens)	-0.333
CCOC(=O)[C@H](Cc1ccccc1)NC(=O)CCC1CC(OC(=O)NCc2cccc3ccccc23)CC2(CCCC(COC(=O)NCCOc3ccccc3)O2)O1 (stereo partly drawn)	Calmodulin-1 (Homo sapiens)	-0.378
COC(=O)[C@H](C)NC(=O)CCC1CC(OC(=O)NCCc2ccc(F)cc2)CC2(CCCC(COC(=O)NCCOc3ccccc3)O2)O1 (stereo partly drawn)	Calmodulin-1 (Homo sapiens)	0.236

State its composite z-score for this molecule: COc1ccc(-c2cnnc(CCCn3ccnc3-c3ccccc3)n2)cc1
-0.686

State its composite z-score for this molecule: CC(CCN1CCCCc2nc(C)c(C)cc21)=NO[C@H](C)c1cn([C@@H]2COC[C@H]2O)nn1
-0.835

State its composite z-score for this molecule: CCOC(=O)CCN1C(=O)[C@H]2[C@H]3[C@H](O)[C@H](O)CC(=NOCC=C(C)CCC=C(C)C)[C@@H]3CC[C@H]2C1=O
-0.672

State its composite z-score for this molecule: Cc1cc(C)c(-c2cc([C@H](C)ON=C[C@@H](C)[C@H](OCc3ccccc3)C(C)C)on2)c(C)c1
-0.34

* * *

molecular target: Homeobox protein Hox-A13 (Mus musculus) (UniProt Q62424); assay: inhibitors of HoxA13-DNA binding, primary screen, biochemical, fluorescence polarization, labeled oligonucleotide (AID 1185); conditions: 15 min, higher = more signal, called active from +8 up or from −8 down
Sequence (Q62424 whole entry, looked up): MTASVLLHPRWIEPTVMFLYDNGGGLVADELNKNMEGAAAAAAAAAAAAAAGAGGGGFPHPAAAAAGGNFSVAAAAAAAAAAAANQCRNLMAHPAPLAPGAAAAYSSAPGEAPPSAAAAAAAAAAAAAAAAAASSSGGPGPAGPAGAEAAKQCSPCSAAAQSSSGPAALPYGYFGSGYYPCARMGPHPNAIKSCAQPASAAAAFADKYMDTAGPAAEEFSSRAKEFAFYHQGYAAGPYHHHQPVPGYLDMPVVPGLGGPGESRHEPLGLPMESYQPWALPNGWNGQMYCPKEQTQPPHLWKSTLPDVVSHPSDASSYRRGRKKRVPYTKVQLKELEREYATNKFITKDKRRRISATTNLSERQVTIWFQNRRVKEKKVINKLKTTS
REPORTED PROPERTY: z-score
Lab note: write the figure by itself, no unit.

As a guide, the following entries are already answered.
COMPOUND	z-score
O=C1[C@H]2[C@H]3[C@H](O)[C@H](O)CC(=NO[C@@H]4O[C@H](CO)[C@@H](O)[C@H](O)[C@H]4O)[C@@H]3CC[C@H]2C(=O)N1C[C@@H]1CCCO1	-0.192
CC(=O)OC[C@H]1O[C@H](CC=NO[C@@H](C)c2cn([C@H](CO)Cc3ccccc3)nn2)C=C[C@@H]1OC(C)=O	-0.583
O=C1C=C[C@@H](O)[C@@H]2[C@@H]3C(=O)N(Cc4ccccc4)C(=O)[C@@H]3CC[C@@H]12	0.291

State its z-score for this compound: CC(=O)OC[C@H]1O[C@H](CCON=C(C)CCN2CCCc3nc(C)c(C)cc32)C=C[C@@H]1OC(C)=O
-6.43

State its z-score for this compound: CO[C@@H]1C=CCC(=O)N[C@@H](C)C(=O)OC[C@@H](NS(=O)(=O)c2ccc(C)cc2)[C@H](C)C=CCC(=O)OC[C@H]1C
-1.06

State its z-score for this compound: CC(C)(C)N1C(=O)[C@H]2[C@H]3[C@H](O)[C@H](O)CC(=NNC(=O)OCc4ccccc4)[C@H]3CC[C@H]2C1=O
-3.42

State its z-score for this compound: CCN1C(=O)[C@H]2[C@H]3[C@H](O)[C@H](O)CC(=NOC(C)CN4CCCc5nc(C)c(C)cc54)[C@@H]3CC[C@H]2C1=O (some centres undefined)
-10.2

* * *

test: PSAC antagonists in infected red cells, primary screen, cell-based, P. falciparum Indochina, OD700, 2 h (AID 1155);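 also: lysis reports solute entry through the parasite surface anion channel PSAC; channel blockers reduce lysis of infected cells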; settings: P. falciparum Indochina infected erythrocytes, osmotic lysis OD700; higher = more signal, called active from +8 up or from −8 down
REPORTED PROPERTY: z-score
Lab note: write the figure by itself, no unit.

As a guide, the following entries are already answered.
MOLECULE	z-score
COC(=O)[C@H](C)NC(=O)CCC1CC(OC(=O)NCc2cccc3ccccc23)CC2(CCCC(COC(=O)NCCCN3CCCC3=O)O2)O1 (some centres not stated)	0.397
COC(=O)[C@H](C)NC(=O)CCC1CC(OC(=O)NCc2ccc3c(c2)OCO3)CC2(CCCC(COC(=O)NCCc3ccc(Cl)cc3)O2)O1 (some centres not stated)	0.223
COc1ccc(COC(=O)NN=C2C[C@@H](O)[C@@H](O)[C@@H]3[C@@H]4C(=O)N(Cc5ccc6c(c5)OCO6)C(=O)[C@@H]4CC[C@H]23)cc1	2.17
O=C1[C@H]2CCn3c(=O)n(Cc4cc5c(cc4Cl)OCO5)c(=O)n3[C@H]2[C@H](O)[C@@H]2O[C@H]12	-0.511
CCOC(=O)[C@H](Cc1ccccc1)NC(=O)CCC1CC(OC(=O)NCc2cccc3ccccc23)CC2(CCCC(COC(=O)NCCc3ccc(Cl)cc3)O2)O1 (some centres not stated)	0.618
C=CC[C@@H]1C=C[C@H](ON=C2C[C@@H](O)[C@@H](O)[C@@H]3[C@@H]4C(=O)N(CC)C(=O)[C@@H]4CC[C@@H]23)[C@@H](CO)O1	-1.65

Now for the molecule whose z-score we want.
State its z-score for this molecule: CCOC(=O)[C@H](Cc1ccccc1)NC(=O)CCC1CC(OC(=O)NCCc2ccc(F)cc2)CC2(CCCC(COC(=O)NCCC(C)C)O2)O1 (some centres not stated)
-0.302

* * *

This listing pairs molecules with measured composite z-score.
target: Streptavidin (Streptomyces avidinii); assay: streptavidin binders on small-molecule microarray, primary screen, artefact control for SMM compound annotation, biophysical, 635/667 nm fluorescence (AID 1147); conditions: streptavidin binding, higher = more signal;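 also: signal reflects streptavidin binding to arrayed compounds as a control protein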
Lab note: write the figure by itself, no unit.

As a guide, the following entries are already answered.
MOLECULE	VALUE OBSERVED
CC=CC1=C(CO)[C@H](O)[C@H]2O[C@H]2[C@@H]1O	0.162
O=C(NN=C1C[C@@H](O)[C@@H](O)[C@@H]2[C@@H]3C(=O)N(Cc4ccc5c(c4)OCO5)C(=O)[C@@H]3CC[C@@H]12)OCc1ccccc1	0.485
CCOC(=O)[C@H](Cc1ccccc1)NC(=O)CCC1CC(OC(=O)NCCc2ccc(F)cc2)CC2(CCCC(COC(=O)NCCC(C)C)O2)O1 (some centres undefined)	0.496

Now for the molecule whose composite z-score we want.
State its composite z-score for this molecule: CC(C)(C)N1C(=O)[C@H]2[C@H]3[C@H](O)[C@H](O)CC(=NOC[C@@H](O)COCc4ccco4)[C@@H]3CC[C@H]2C1=O
-0.276
